# Tested On: GRK2 (Homo sapiens)
# Sequence (P25098 whole entry): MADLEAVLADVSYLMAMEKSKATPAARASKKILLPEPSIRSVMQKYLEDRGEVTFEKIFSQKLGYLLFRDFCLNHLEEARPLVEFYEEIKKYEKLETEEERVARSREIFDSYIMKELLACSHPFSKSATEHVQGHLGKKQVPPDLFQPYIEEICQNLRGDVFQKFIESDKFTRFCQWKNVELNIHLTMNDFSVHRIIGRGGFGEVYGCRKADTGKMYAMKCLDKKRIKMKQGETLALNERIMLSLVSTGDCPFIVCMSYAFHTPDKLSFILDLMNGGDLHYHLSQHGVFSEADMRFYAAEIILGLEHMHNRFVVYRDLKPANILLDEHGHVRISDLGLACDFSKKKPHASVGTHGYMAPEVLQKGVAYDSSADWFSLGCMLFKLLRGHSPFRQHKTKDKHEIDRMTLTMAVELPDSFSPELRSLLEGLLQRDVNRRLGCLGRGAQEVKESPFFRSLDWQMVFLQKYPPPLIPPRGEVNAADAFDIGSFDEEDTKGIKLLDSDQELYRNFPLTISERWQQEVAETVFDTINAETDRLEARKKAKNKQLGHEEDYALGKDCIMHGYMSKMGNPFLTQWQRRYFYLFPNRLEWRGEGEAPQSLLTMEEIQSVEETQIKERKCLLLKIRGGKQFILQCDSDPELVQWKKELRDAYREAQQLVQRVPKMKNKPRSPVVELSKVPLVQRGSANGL
# Assay Text: GRK2 Degradation Assay and Western Blot in PAXF1657 cells
# Type: cell-based
# Parameters: endogenous in cells; host or cells: PAXF1657
# Condition Context: 3 uM, PAXF1657 EV, 24 hrs; read-out: % GRK2 degradation at 3 uM in PAXF1657 EV (24 hrs)
Property Name: inhibition at 3 µM (%)
Answers are plain numbers, in %.

# example entries with known answers
q: Identify measured inhibition at 3 µM corresponding to Cn1c(CNc2cccc(C(=O)NCc3cccc(OCCCCCOCCCOCC(=O)Nc4cccc5c4CN(C4CCC(=O)NC4=O)C5=O)c3)c2)nnc1-c1ccncn1 (stereo not drawn)
a: 83

q: Identify measured inhibition at 3 µM corresponding to Cc1ncsc1-c1ccc(CNC(=O)[C@@H]2C[C@@H](O)CN2C(=O)[C@@H](NC(=O)CCCCCOCCOCCOCCCCCCOc2cccc(C(C)NC(=O)c3cccc(NCc4nnc(-c5ccncn5)n4C)c3)c2)C(C)(C)C)cc1 (stereo partly drawn)
a: 16

***
q: Identify measured inhibition at 3 µM corresponding to Cn1c(CNc2cccc(C(=O)NCc3cccc(OCCCCCCOCCOCCOCCCC(=O)Nc4cccc5c4CN(C4CCC(=O)NC4=O)C5=O)c3)c2)nnc1-c1ccncn1 (stereo not drawn)
a: 64
